Recorded pKd by entry
# target or test system: PARP2 (Homo sapiens, UniProt Q9UGN5)
# Sequence (Q9UGN5 whole entry): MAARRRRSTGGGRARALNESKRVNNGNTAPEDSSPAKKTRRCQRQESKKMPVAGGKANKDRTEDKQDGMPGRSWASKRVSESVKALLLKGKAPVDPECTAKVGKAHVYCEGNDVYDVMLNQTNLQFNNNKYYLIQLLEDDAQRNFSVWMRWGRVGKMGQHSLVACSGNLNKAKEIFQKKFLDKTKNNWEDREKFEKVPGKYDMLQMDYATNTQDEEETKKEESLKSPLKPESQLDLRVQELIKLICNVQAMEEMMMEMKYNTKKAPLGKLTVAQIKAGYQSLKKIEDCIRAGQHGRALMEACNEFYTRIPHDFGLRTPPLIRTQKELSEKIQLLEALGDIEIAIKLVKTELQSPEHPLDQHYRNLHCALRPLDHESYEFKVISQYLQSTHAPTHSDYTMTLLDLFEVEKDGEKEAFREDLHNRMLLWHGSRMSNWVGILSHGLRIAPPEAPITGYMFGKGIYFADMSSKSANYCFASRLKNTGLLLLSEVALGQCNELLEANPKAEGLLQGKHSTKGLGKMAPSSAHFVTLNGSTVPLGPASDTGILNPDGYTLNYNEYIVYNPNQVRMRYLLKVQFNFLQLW
# assay details: NanoBRET cellular target occupancy assay, PARP2
# condition description: HEK293 cells transiently transfected with PARP2-NanoLuc fusion; tracer 2 nM; 2 hours at 37° C.; Kd by Cheng-Prussoff
# Description: NanoBRET Cellular Target Occupancy Assay
pKd: −log10 of the molar value.

# count of solved cases: 3
[[record]]
compound = "CNC(=O)c1ccc(N2CCC(N3CCC(c4cc5ccc(F)cc5c(=O)[nH]4)C3)CC2)c(F)n1 (racemic) [Compound 174rac]"
attribute_measured = "pKd"
measured = "5.00 to 6.00"

[[record]]
compound = "CNC(=O)c1ccc(N2CCC(N3CC4(c5nc6c(c(=O)[nH]5)CCCN6C)CC3C4)CC2)cn1"
attribute_measured = "pKd"
measured = "6.00 to 7.00"

[[record]]
compound = "CNC(=O)c1ccc(N2CCC(N3CCC(c4nc5[nH]cc(C(F)(F)F)c5c(=O)[nH]4)C3)CC2)cn1 (racemic)"
attribute_measured = "pKd"
measured = "6.00 to 7.00"


# ---- query compound ----
input: Using the record for CNC(=O)c1ccc(N2CCC(N3CCC(c4ccc(CC5CC5)c(=O)[nH]4)C3)CC2)c(F)n1 (single isomer, unassigned) [Compound 313b] , report its pKd.
output: 5.00 to 6.00
